targetOrTestSystem: Neuropeptides B/W receptor type 1 (Homo sapiens)
measurementNotes: GPR7 receptor antagonists, primary screen, cell-based, fluorescence, single concentration (AID 1861);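 also: cells stimulated with the agonist NPW; 0% = agonist with vehicle and 100% = vehicle without agonist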
runConditions: GPR7-expressing cells, fluorescence antagonist assay; at 4.4 µM; active compounds read high
Out of some 290,000 compounds screened, about 3,100 (1.1%) were called active. This is one part of a sample in which actives are shown more often than they occur.
The entries below come with measured inhibition values attached.
Give just the number in %; leave the unit off.

Solved entries:
INSERT INTO assay_data (compound, measvalue) VALUES
  ('CCOCC(=O)Nc1ncc(S(=O)(=O)c2ccc([N+](=O)[O-])cc2)s1', 19.5),
  ('Cc1ccccc1N1CC(C(=O)Nc2ccc3c(c2)OCO3)CC1=O (stereo not drawn)', -9.07),
  ('CS(=O)(=O)c1ccc(-c2nnn(CC(=O)Nc3ccc4c(c3)OCCO4)n2)cc1', 11.6);

Turning now to a further compound:
*Q* # input compound: `Cc1cc(Cl)ccc1OCCCC(=O)NCc1ccccn1` ; wanted: its inhibition
*A* 5.1

* * *

targetOrTestSystem: Neuropeptides B/W receptor type 1 (Homo sapiens)
measurementNotes: GPR7 receptor antagonists, primary screen, cell-based, fluorescence, single concentration (AID 1861)
runConditions: GPR7-expressing cells, fluorescence antagonist assay; at 4.4 µM
The campaign covered roughly 290,000 compounds. About 3,100 (1.1%) were called active. Cut-off read from the data, not from the text of the source: active = inhibition above about 16% (passing the limit was not always enough); inactive = the rest. Shown is part of a subset that was picked to be rich in actives.
Valid outcomes are listed here; reply with one: True for active, False for inactive

INSERT INTO measurements (compound, classname) VALUES
  ('Cc1cc(C)cc(NC(=O)C2CCCN(S(=O)(=O)c3ccc4[nH]c(=O)ccc4c3)C2)c1 (stereo not given)', 'False'),
  ('COc1ccc(C2Nc3ccccc3C(=O)N2Cc2ccccc2)cc1Cn1nnc2ccccc21 (stereo not given)', 'True'),
  ('CC(=O)N1c2ccc(S(=O)(=O)N3CCCC(C(=O)Nc4cccc(Cl)c4)C3)cc2CC1C (stereo not given)', 'False'),
  ('CC(C)[C@H](NC(=O)N1CCn2c1nc1ccccc12)C(=O)NC1CC1', 'False');

*Q* Short answer needed: outcome of this test for `O=C(c1ccccc1)N1CCN(C(=O)c2cc3nc(-c4ccccc4)cc(C(F)(F)F)n3n2)CC1` ?
*A* False

*Q* Short answer needed: outcome of this test for `O=C(COc1ccc(S(=O)(=O)NCc2ccccc2)cc1)N1CCOCC1` ?
*A* False

*Q* Short answer needed: outcome of this test for `CN(Cc1ccccc1)c1nc2c(c(=O)[nH]c(=O)n2C)n1CCSc1nc2ccccc2[nH]1` ?
*A* False

* * *

targetOrTestSystem: Neuropeptides B/W receptor type 1 (Homo sapiens)
measurementNotes: GPR7 receptor antagonists, primary screen, cell-based, fluorescence, single concentration (AID 1861)
runConditions: GPR7-expressing cells, fluorescence antagonist assay; at 4.4 µM
The whole screen tested about 290,000 compounds, of which about 3,100 (1.1%) were called active. No stated cut-off is given here; in the data, active means inhibition above about 16% (passing the limit was not always enough); inactive means the rest. The sample holds actives, similar compounds and a random draw of the others, so the mix is not that of the screen.
Valid outcomes are listed here; reply with one: 1 = active, -1 = inactive

INSERT INTO results (compound, classname) VALUES
  ('CCOc1ccc(NC(=O)CC2NCCNC2=O)cc1 (stereo not drawn)', -1),
  ('CCOc1ccc(Cn2nnc(C(=O)Nc3ccc(OC)cc3OC)c2N)cc1', -1),
  ('Cc1cc(NC(=O)CSc2nnc(Nc3ccccc3F)s2)no1', -1),
  ('Cc1ccccc1Nc1nnc(SCC(=O)c2cc3ccccc3o2)s1', 1),
  ('CC(C)NC(=O)C(c1ccc(F)cc1)N(C(=O)CCC(=O)Nc1ccccn1)c1ccccc1F (stereo not drawn)', -1),
  ('CS(=O)(=O)N(CC(O)Cn1c2ccccc2c2ccccc21)c1cccc2ccccc12 (stereo not drawn)', 1),
  ('Cc1ccc(Nc2nnc(SCC(=O)c3cc4ccccc4o3)s2)cc1C', -1),
  ('CCc1ccc(NC(=O)Cn2nnc(C(=O)NCc3ccc(OC)cc3)c2N)cc1', -1);

*Q* Short answer needed: outcome of this test for `O=C(COc1ccc(Cl)cc1Cl)NCCCNC(=O)c1cnccn1` ?
*A* -1

*Q* Short answer needed: outcome of this test for `COCCn1cnc2c1c(=O)n(CC(=O)NN)c(=O)n2Cc1ccccc1` ?
*A* -1

*Q* Short answer needed: outcome of this test for `O=C(Nc1nc(-c2ccc3c(c2)OCO3)cs1)c1ccncc1` ?
*A* 1

*Q* Short answer needed: outcome of this test for `O=C(/C=C/c1cccs1)c1cc(Cl)ccc1OC(=O)N1CCOCC1` ?
*A* -1

*Q* Short answer needed: outcome of this test for `CC(=O)NCCC(=O)Nc1nc(-c2ccc3c(c2)OCCO3)cs1` ?
*A* -1

*Q* Short answer needed: outcome of this test for O=C(Nc1nc(-c2ccncc2)cs1)C1COc2ccccc2O1 (stereo not drawn) ?
*A* -1

* * *

targetOrTestSystem: Neuropeptides B/W receptor type 1 (Homo sapiens) (UniProt P48145)
Sequence (P48145 whole entry, looked up): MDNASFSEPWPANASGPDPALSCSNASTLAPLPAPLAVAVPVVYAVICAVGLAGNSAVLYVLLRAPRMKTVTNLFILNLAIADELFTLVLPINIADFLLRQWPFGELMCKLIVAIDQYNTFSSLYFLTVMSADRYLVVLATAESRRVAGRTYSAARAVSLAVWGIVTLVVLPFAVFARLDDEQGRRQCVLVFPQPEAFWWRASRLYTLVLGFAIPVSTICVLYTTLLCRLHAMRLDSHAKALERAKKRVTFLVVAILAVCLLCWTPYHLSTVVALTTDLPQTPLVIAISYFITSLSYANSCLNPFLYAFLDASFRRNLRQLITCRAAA
measurementNotes: GPR7 receptor antagonists, primary screen, cell-based, fluorescence, single concentration (AID 1861)
runConditions: GPR7-expressing cells, fluorescence antagonist assay; at 4.4 µM
About 3,100 (1.1%) of roughly 290,000 compounds were called active. Cut-off read from the data, not from the text of the source: active = inhibition above about 16% (passing the limit was not always enough); inactive = the rest. What follows is part of a selection rich in actives, with near analogues and random picks from the rest.
Valid outcomes are listed here; reply with one: active, inactive

INSERT INTO measurements (molecule, classname) VALUES
  ('N=C1C(c2nc3ccccc3s2)=C(O)CN1NC(=O)c1ccc([N+](=O)[O-])cc1', 'inactive');

Please examine the following record next.
*Q* Short answer needed: outcome of this test for O=C(Nc1ccccc1Cl)/C(Cl)=C(\Cl)S(=O)c1ccccc1 (stereo not given) ?
*A* active

* * *

targetOrTestSystem: Neuropeptides B/W receptor type 1 (Homo sapiens) (UniProt P48145)
measurementNotes: GPR7 receptor antagonists, primary screen, cell-based, fluorescence, single concentration (AID 1861)
runConditions: GPR7-expressing cells, fluorescence antagonist assay; at 4.4 µM
Out of some 290,000 compounds screened, about 3,100 (1.1%) were called active. Rule as the data show it: active = inhibition above about 16% (passing the limit was not always enough); inactive = the rest. The full list was thinned out, with actives kept by preference.
Valid outcomes are listed here; reply with one: True for active, False for inactive

These recorded examples may help you get a feel for the data.
INSERT INTO assay_data (molecule, classname) VALUES
  ('COc1ccc2c(CC(=O)N3CCc4cc(OC)c(OC)cc4C3)coc2c1', 'True'),
  ('COc1ccc(NC(=S)N2CCc3cc(OC)c(OC)cc3C2)cc1', 'False'),
  ('COc1ccc(N(CC(=O)NCc2ccc(F)cc2)C(=O)CCC(=O)Nc2nccs2)cc1', 'False'),
  ('Cc1cccc(-c2nnc(SCC(=O)O)n2Cc2ccccc2)c1', 'False');

*Q* Short answer needed: outcome of this test for COc1cccc(C(C(=O)NC2CCCC2)N(C(=O)c2ccco2)c2cccc(C(C)=O)c2)c1OC (stereo not given) ?
*A* False

* * *

targetOrTestSystem: Neuropeptides B/W receptor type 1 (Homo sapiens)
measurementNotes: GPR7 receptor antagonists, primary screen, cell-based, fluorescence, single concentration (AID 1861);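 also: cells stimulated with the agonist NPW; 0% = agonist with vehicle and 100% = vehicle without agonist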
runConditions: GPR7-expressing cells, fluorescence antagonist assay; at 4.4 µM
Screen size: about 290,000 compounds; about 3,100 (1.1%) were called active. No stated cut-off is given here; in the data, active means inhibition above about 16% (passing the limit was not always enough); inactive means the rest. Shown is part of a subset that was picked to be rich in actives.
Valid outcomes are listed here; reply with one: TRUE for active, FALSE for inactive

These recorded examples may help you get a feel for the data.
INSERT INTO measurements (molecule, classname) VALUES
  ('Cc1ccc(O)c(NC(=S)NC(=O)COc2ccc(Br)cc2)c1', 'TRUE'),
  ('COc1ccc(C(CNCC(=O)Nc2ccccc2F)N(C)C)cc1 (stereo not drawn)', 'FALSE'),
  ('Cc1ccc2[nH]cc(CCNC(=O)C3CCCCC3)c2c1', 'FALSE');

*Q* Short answer needed: outcome of this test for OC(COc1ccc2ccccc2c1)CN1CCOCC1 (stereo not drawn) ?
*A* FALSE

* * *

targetOrTestSystem: Neuropeptides B/W receptor type 1 (Homo sapiens)
measurementNotes: GPR7 receptor antagonists, primary screen, cell-based, fluorescence, single concentration (AID 1861);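 also: cells stimulated with the agonist NPW; 0% = agonist with vehicle and 100% = vehicle without agonist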
runConditions: GPR7-expressing cells, fluorescence antagonist assay; at 4.4 µM
Hit rate of the full screen: of about 290,000 compounds, about 3,100 (1.1%) were called active. Rule as the data show it: active = inhibition above about 16% (passing the limit was not always enough); inactive = the rest. The sample holds actives, similar compounds and a random draw of the others, so the mix is not that of the screen.
Valid outcomes are listed here; reply with one: y for active, n for inactive

*Q* Short answer needed: outcome of this test for COc1ccc(NC(=O)C2CCC(CNS(=O)(=O)c3csc(C(N)=O)c3)CC2)cc1OC (configuration not stated) ?
*A* y

* * *

targetOrTestSystem: Neuropeptides B/W receptor type 1 (Homo sapiens)
measurementNotes: GPR7 receptor antagonists, primary screen, cell-based, fluorescence, single concentration (AID 1861);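 also: cells stimulated with the agonist NPW; 0% = agonist with vehicle and 100% = vehicle without agonist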
runConditions: GPR7-expressing cells, fluorescence antagonist assay; at 4.4 µM; active compounds read high
Hit rate of the full screen: of about 290,000 compounds, about 3,100 (1.1%) were called active. For the sample, actives were picked, then their nearest neighbours and some compounds at random.
The entries below come with measured inhibition values attached.
Give just the number in %; leave the unit off.

Solved entries:
INSERT INTO assay_data (compound, measvalue) VALUES
  ('Cc1ccccc1NC(=S)NC(=O)Cc1ccc(Cl)cc1', 56.5),
  ('O=C1OC(OC(=O)c2ccccc2Br)C(N2CCOCC2)=C1Cl (stereo unspecified)', -8.99),
  ('Cc1ccc(S(=O)(=O)n2cnc3ccccc32)c(C)c1', 35.5),
  ('N#CCOc1ccc(C2=NO[C@@H]3[C@@H]4C[C@@H]([C@H]5C(=O)N(c6ccc7c(c6)OCO7)C(=O)[C@@H]45)[C@H]23)cc1', 4.89),
  ('COC(=O)c1ccccc1NC(=O)CSc1n[nH]c(-c2ccncc2)n1', -2.88);

*Q* # input compound: `O=C(NCCNc1ccccc1[N+](=O)[O-])c1ccccc1F` ; wanted: its inhibition
*A* 2.99

*Q* # input compound: `Cc1ccc(C)c(S(=O)(=O)n2cnc3ccccc32)c1` ; wanted: its inhibition
*A* 8
